Provenance of the data: patent US8241627B2

Kon, interaction of αL I-domains with ICAM-1 overview
- experimental target: ICAM-1 (Homo sapiens, UniProt P05362)
- Sequence (P05362 28-480 limits assumed): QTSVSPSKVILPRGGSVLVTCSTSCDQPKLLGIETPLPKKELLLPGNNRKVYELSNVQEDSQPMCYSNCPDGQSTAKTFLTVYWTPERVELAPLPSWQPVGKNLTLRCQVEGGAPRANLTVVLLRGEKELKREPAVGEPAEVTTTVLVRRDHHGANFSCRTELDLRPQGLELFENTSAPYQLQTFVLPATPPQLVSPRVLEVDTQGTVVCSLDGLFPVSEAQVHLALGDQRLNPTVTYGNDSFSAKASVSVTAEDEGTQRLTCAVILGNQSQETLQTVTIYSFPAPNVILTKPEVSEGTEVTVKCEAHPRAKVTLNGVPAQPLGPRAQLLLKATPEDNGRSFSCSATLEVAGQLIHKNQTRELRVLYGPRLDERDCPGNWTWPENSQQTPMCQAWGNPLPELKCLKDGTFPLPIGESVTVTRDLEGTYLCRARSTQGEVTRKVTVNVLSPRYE
- measurement protocol: BIAcore binding of soluble αL I-domains to ICAM-1
- reported conditions: calculated by Koff/KD
# value in M⁻¹ s⁻¹; strip the unit string

| molecule | value |
| --- | --- |
| wild-type I-domain: wild-type αL I-domain, soluble recombinant or expressed on K562 surface via PDGFR transmembrane domain (protein) GNVDLVFLFDGSMSLQPDEFQKILDFMKDVMKKLSNTSYQFAAVQFSTSYKTEFDFSDYVKRKDPDALLKHVKHMLLLTNTFGAINYVATEVFREELGARPDATKVLIIITDGEATDSGNIDAAKDIIRYIIGIGKHFQTKESQETLHKFASKPASEFVKILDTFEKLKDLFTELQKKIY | 2220 |
| K160C/F299C: intermediate-affinity open αL I-domain mutant, cysteines for K160 and F299 (protein) GNVDLVFLFDGSMSLQPDEFQKILDFMKDVMKCLSNTSYQFAAVQFSTSYKTEFDFSDYVKRKDPDALLKHVKHMLLLTNTFGAINYVATEVFREELGARPDATKVLIIITDGEATDSGNIDAAKDIIRYIIGIGKHFQTKESQETLHKFASKPASEFVKILDTFEKLKDLCTELQKKIY | 153000 |
| L161C/F299C: intermediate-affinity open αL I-domain mutant, cysteines for L161 and F299 (protein) GNVDLVFLFDGSMSLQPDEFQKILDFMKDVMKKCSNTSYQFAAVQFSTSYKTEFDFSDYVKRKDPDALLKHVKHMLLLTNTFGAINYVATEVFREELGARPDATKVLIIITDGEATDSGNIDAAKDIIRYIIGIGKHFQTKESQETLHKFASKPASEFVKILDTFEKLKDLCTELQKKIY | 136000 |
| E284C/E301C: high affinity open αL I-domain mutant, E284 and E301 replaced by cysteines (protein) GNVDLVFLFDGSMSLQPDEFQKILDFMKDVMKKLSNTSYQFAAVQFSTSYKTEFDFSDYVKRKDPDALLKHVKHMLLLTNTFGAINYVATEVFREELGARPDATKVLIIITDGEATDSGNIDAAKDIIRYIIGIGKHFQTKESQETLHKFASKPASCFVKILDTFEKLKDLFTCLQKKIY | 128000 |
| L289C/K294C: low affinity closed αL I-domain mutant, cysteines for L289 and K294 (protein) GNVDLVFLFDGSMSLQPDEFQKILDFMKDVMKKLSNTSYQFAAVQFSTSYKTEFDFSDYVKRKDPDALLKHVKHMLLLTNTFGAINYVATEVFREELGARPDATKVLIIITDGEATDSGNIDAAKDIIRYIIGIGKHFQTKESQETLHKFASKPASEFVKICDTFECLKDLFTELQKKIY | 2110 |

-- ask Look at this molecule and give its reported Kon, interaction of αL I-domains with ICAM-1. K287C/K294C: human αL (LFA-1) I-domain with K287 and K294 replaced by cysteines; high affinity locked open; tested in intact LFA-1, cell-surface and soluble forms (protein, human αL (LFA-1) I-domain with K287 and K294 replaced by cysteines; tested in intact LFA-1, cell-surface and soluble forms) GNVDLVFLFDGSMSLQPDEFQKILDFMKDVMKKLSNTSYQFAAVQFSTSYKTEFDFSDYVKRKDPDALLKHVKHMLLLTNTFGAINYVATEVFREELGARPDATKVLIIITDGEATDSGNIDAAKDIIRYIIGIGKHFQTKESQETLHKFASKPASEFVCILDTFECLKDLFTELQKKIY
-- reply 128000

-- ask Look at this molecule and give its reported Kon, interaction of αL I-domains with ICAM-1. L161C/T300C: intermediate-affinity open αL I-domain mutant, cysteines for L161 and T300 (protein) GNVDLVFLFDGSMSLQPDEFQKILDFMKDVMKKCSNTSYQFAAVQFSTSYKTEFDFSDYVKRKDPDALLKHVKHMLLLTNTFGAINYVATEVFREELGARPDATKVLIIITDGEATDSGNIDAAKDIIRYIIGIGKHFQTKESQETLHKFASKPASEFVKILDTFEKLKDLFCELQKKIY
-- reply 135000
